Reference source: ChEMBL document CHEMBL1961873

Target: Tyrosine-protein kinase BTK (Homo sapiens);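 note: values are averaged percent inhibition of BTK enzyme activity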
Details: at 0.1 µM
# inhibition listing for each entry below
Readout kind: inhibition (%)

                                    molecule  readout_value
 0  O=C1Nc2ccc(-c3cccnc3)cc2C1=Cc1cc(Br)c(O)c(Br)c1           0.22
 1  CCS(=O)(=O)c1ccc(OC)c(Nc2ncc(-c3cccc(OC)c3)o2)c1           3.67
 2         N#Cc1c(NC(=O)c2ccccc2F)sc2c1CCCC2           0.32
 3  ON=C1CCc2cc(-c3nc(C4CCNCC4)[nH]c3-c3ccncc3)ccc21          -1.11
 4  COc1cccc(-n2nc(C)c3c(N/N=C(\C)c4ccncc4)ncnc32)c1           0.11
 5  OCc1ccc(-c2nc(-c3ccccn3)c(-c3ccc4c(c3)OCO4)[nH]2)cc1           3.02
 6  CN(C)C(=O)O[C@@H]1CN[C@@H](C#Cc2cc3ncnc(Nc4ccc(OCc5cccc(F)c5)c(Cl)c4)c3s2)C1          -0.22
 7  Nc1ccc(C#Cc2cncnc2Nc2ccc(OCc3cccc(F)c3)c(Cl)c2)cc1          -0.24
 8    N#Cc1cccc(Nc2nccc(-c3cnn4ncccc34)n2)c1           2.23
 9  COc1cc2ncnc(Nc3ccc4c(cnn4Cc4ccccc4)c3)c2cc1OC           4.09
10  Oc1cccc(-c2nc(-c3ccccc3)[nH]c2-c2ccncc2)c1           2.03
11   Cc1ccc(O)cc1Nc1ccnc2ccc(S(C)(=O)=O)cc12           63.8
12  CCCN1CCCC(c2ccc(Nc3nc(Nc4cc(F)ccc4C(N)=O)c4cc[nH]c4n3)c(OC)c2)C1 (stereo not given)           0.49
13  NS(=O)(=O)c1ccc(NC=C2C(=O)Nc3ccc4ncsc4c32)cc1            0.4
14       COc1cc2ncnc(Nc3ccc(C)c(O)c3)c2cc1OC           0.81
15  Nc1nccc(-c2c(-c3ccc(F)cc3)ncn2CCCN2CCOCC2)n1          -0.92
16  O=S(=O)(CCOCc1ccc(-c2ccc3ncnc(Nc4ccc(OCc5cccc(F)c5)c(Cl)c4)c3c2)o1)c1ccccc1          -1.67
17  NC(=O)c1sc(-n2cnc3ccccc32)cc1OCc1ccccc1Br          -0.65
18  COC(=O)Nc1nc2cc(Oc3ccc(NC(=O)Nc4cccc(Br)c4)cc3)ccc2[nH]1           1.15
19  CC(C)c1ccc2c(c1)NC(=O)/C2=N/Nc1ccc(S(N)(=O)=O)cc1          -0.25
20  NS(=O)(=O)c1ccc(N/N=C2\C(=O)Nc3ccc(Cl)cc32)cc1           0.31
21  Cc1cc(O)cc(C)c1/C=C/c1cncc(C(=O)N(C)C)c1           1.28
22  COc1cccc(-n2ncc3c(N/N=C/c4ccc(S(C)(=O)=O)cc4)ncnc32)c1          -4.35
23  O=C(Nc1ccc(Oc2ccc3[nH]c(NC(=O)c4ccco4)nc3c2)cc1)Nc1cc(C(F)(F)F)ccc1F           -3.7
24  Cc1ccc(NC(=O)CC2CC2)cc1-c1ccc(C(=O)NCC2CC2)cc1            1.4

====

# inhibition listing for each entry below
Target: Mitogen-activated protein kinase 9 (Homo sapiens) (UniProt P45984);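 note: reported figure is the mean inhibition of JNK2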
Sequence (P45984 whole entry, looked up): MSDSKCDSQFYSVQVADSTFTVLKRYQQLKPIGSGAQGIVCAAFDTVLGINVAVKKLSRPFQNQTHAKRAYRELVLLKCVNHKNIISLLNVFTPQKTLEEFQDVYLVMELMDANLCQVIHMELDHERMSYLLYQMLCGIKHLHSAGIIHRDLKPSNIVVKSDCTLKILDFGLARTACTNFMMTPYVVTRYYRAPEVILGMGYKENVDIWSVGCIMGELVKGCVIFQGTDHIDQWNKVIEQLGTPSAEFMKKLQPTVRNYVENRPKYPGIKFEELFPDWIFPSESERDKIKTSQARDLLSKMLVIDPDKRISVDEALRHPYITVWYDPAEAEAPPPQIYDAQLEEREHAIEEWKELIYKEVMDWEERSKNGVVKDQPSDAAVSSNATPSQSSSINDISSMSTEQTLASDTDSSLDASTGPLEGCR
Conditions: at 1 µM
Readout kind: inhibition (%)

                            molecular_string  readout_kind  unit_abbrev  readout_value
 0             CCOc1nccc2c1nc(-c1nonc1N)n2CC    inhibition            %           1.43
 1  FC(F)(F)c1ccc(-c2nn3ncccc3c2-c2ccnc(Nc3ccc4c(c3)OCCO4)n2)cc1    inhibition            %           32.6
 2  C[C@@H](Oc1cc(-n2cnc3ccc(OCC4CCN(C)CC4)cc32)sc1C(N)=O)c1ccccc1C(F)(F)F    inhibition            %          -1.11
 3  CC(C)c1ccc2c(c1)NC(=O)/C2=N/Nc1ccc(S(N)(=O)=O)cc1    inhibition            %           0.34
 4          CN(C)CCCn1c(-c2nonc2N)nc2cnccc21    inhibition            %           4.57
 5  CCS(=O)(=O)c1ccc(OC)c(Nc2nccc(N(C)c3ccc4c(C)n[nH]c4c3)n2)c1    inhibition            %           2.08
 6  CN(C)C(=O)O[C@@H]1CN[C@@H](C#Cc2cc3ncnc(Nc4ccc(OCc5cccc(F)c5)c(Cl)c4)c3s2)C1    inhibition            %           4.77
 7  O=S(=O)(CCOCc1ccc(-c2ccc3ncnc(Nc4ccc(OCc5cccc(F)c5)c(Cl)c4)c3c2)o1)c1ccccc1    inhibition            %           0.74
 8  ON=C1CCc2cc(-c3nc(C4CCNCC4)[nH]c3-c3ccncc3)ccc21    inhibition            %           3.06
 9  C[C@@H](Oc1cc(-n2cnc3ccc(OC[C@@H](O)CO)cc32)sc1C(N)=O)c1ccccc1Cl    inhibition            %          -0.96
10  O=C1Nc2ccc(-c3cccnc3)cc2C1=Cc1cc(Br)c(O)c(Br)c1    inhibition            %           3.04
11     COc1cc(/C=N/Nc2ncnc3c2cnn3C(C)C)ccc1O    inhibition            %           3.44
12  Cc1cc(-c2ccccn2)cc(C)c1/C=C/c1cncc(-c2nn[nH]n2)c1    inhibition            %           9.24
13  Nc1nccc(-c2c(-c3ccc(F)cc3)nn3cc(C(F)(F)F)ccc23)n1    inhibition            %           4.47
14  CCS(=O)(=O)c1ccc(OC)c(Nc2ncc(-c3cccc(OC)c3)o2)c1    inhibition            %           6.62
15     COC(=O)c1cncc(/C=C/c2c(C)cc(O)cc2C)c1    inhibition            %           2.18

====

Listed next: entries and their corresponding inhibition.
Target: Tyrosine-protein kinase Fyn (Homo sapiens) (UniProt P06241)
Sequence (P06241 2-537 limits assumed): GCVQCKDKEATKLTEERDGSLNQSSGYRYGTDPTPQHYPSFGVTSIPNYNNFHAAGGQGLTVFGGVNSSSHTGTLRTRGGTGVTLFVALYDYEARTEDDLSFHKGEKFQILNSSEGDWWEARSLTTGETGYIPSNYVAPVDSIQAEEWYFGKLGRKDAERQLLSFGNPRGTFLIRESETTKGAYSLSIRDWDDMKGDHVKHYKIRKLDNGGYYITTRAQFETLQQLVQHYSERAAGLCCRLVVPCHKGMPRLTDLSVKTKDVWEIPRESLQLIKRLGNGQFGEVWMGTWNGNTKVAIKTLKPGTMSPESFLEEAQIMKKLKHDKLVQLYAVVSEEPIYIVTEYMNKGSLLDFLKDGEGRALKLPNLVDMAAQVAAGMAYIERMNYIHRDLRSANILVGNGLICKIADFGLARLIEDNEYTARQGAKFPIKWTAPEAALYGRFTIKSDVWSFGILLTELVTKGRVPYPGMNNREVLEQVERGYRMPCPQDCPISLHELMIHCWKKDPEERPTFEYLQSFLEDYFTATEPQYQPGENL
Details: at 1 µM
Description: GSK_PKIS: FYN mean inhibition at 1 uM [Nanosyn]
Readout kind: inhibition

In [3]: df
Out[3]:
                           molecular_string                           measured_target  readout_value
0  CCS(=O)(=O)c1ccc(OC)c(Nc2nccc(N(C)c3ccc4c(C)n[nH]c4c3)n2)c1  Tyrosine-protein kinase Fyn (Homo sapiens) (UniProt P06241)            65%
1  [O-][S+]1CCN(Cc2ccc(-c3ccc4ncnc(Nc5ccc(OCc6ccccc6)c(Cl)c5)c4c3)o2)CC1  Tyrosine-protein kinase Fyn (Homo sapiens) (UniProt P06241)          4.61%
2  COc1cccc(-n2ncc3c(N/N=C/c4ccc(C)cc4)ncnc32)c1  Tyrosine-protein kinase Fyn (Homo sapiens) (UniProt P06241)          16.5%
3  CN1CCN(C(=O)c2ccc(NC(=O)Nc3ccc(N(C)c4ccnc(Nc5ccc(CS(C)(=O)=O)cc5)n4)cc3)cc2)CC1  Tyrosine-protein kinase Fyn (Homo sapiens) (UniProt P06241)          8.13%
4  NC(=O)c1sc(-n2cnc3ccccc32)cc1OCc1ccccc1Br  Tyrosine-protein kinase Fyn (Homo sapiens) (UniProt P06241)          6.19%
5  Cc1ccc2c(c1)/C(=N/Nc1ccc(S(N)(=O)=O)cc1)C(=O)N2  Tyrosine-protein kinase Fyn (Homo sapiens) (UniProt P06241)          0.85%
6  O=S(=O)(CCOCc1ccc(-c2ccc3ncnc(Nc4ccc(OCc5cccc(F)c5)c(Cl)c4)c3c2)o1)c1ccccc1  Tyrosine-protein kinase Fyn (Homo sapiens) (UniProt P06241)           0.6%
7  Cc1cc(-c2ccccn2)cc(C)c1/C=C/c1cncc(-c2nn[nH]n2)c1  Tyrosine-protein kinase Fyn (Homo sapiens) (UniProt P06241)          9.92%

====

Entries and their measured inhibition follow.
Target: Non-receptor tyrosine-protein kinase TYK2 (Homo sapiens) (UniProt P29597);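 note: each value is a mean of the inhibition readings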
Sequence (P29597 whole entry): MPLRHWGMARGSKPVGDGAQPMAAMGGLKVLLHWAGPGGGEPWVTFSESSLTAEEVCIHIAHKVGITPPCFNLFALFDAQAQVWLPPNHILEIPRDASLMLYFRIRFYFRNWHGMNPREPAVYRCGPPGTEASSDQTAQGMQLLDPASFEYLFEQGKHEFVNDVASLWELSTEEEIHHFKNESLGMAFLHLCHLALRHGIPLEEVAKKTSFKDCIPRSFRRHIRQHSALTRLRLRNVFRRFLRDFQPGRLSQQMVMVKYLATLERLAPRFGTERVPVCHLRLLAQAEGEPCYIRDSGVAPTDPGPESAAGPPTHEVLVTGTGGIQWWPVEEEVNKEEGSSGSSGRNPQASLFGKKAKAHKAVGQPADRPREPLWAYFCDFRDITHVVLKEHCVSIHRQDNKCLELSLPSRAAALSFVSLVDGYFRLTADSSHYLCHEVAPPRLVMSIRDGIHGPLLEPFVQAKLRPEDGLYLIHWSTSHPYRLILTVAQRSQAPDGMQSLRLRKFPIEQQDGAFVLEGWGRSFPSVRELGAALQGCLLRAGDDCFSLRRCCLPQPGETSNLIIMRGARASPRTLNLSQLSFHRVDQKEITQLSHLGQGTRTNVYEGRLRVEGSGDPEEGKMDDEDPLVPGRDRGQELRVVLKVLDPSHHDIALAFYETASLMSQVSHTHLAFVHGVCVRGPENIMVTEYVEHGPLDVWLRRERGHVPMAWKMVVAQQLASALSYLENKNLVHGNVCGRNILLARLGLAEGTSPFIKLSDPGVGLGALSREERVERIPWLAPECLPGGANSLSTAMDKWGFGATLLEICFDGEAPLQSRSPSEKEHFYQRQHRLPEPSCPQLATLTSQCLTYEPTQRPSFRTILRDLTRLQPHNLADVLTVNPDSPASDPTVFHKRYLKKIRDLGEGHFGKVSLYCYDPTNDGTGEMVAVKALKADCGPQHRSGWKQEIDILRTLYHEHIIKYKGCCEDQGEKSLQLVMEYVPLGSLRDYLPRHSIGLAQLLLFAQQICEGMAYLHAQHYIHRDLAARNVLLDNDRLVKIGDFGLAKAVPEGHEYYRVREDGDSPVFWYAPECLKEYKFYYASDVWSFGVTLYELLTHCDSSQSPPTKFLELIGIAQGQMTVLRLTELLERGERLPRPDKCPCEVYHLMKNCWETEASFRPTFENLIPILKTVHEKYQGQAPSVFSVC
Conditions: at 0.1 µM
Readout kind: inhibition (%)

                           molecular_string                           measured_target  readout_kind  unit_abbrev  readout_value
0  COC(=O)Nc1nc2cc(Oc3ccc(NC(=O)Nc4cccc(Br)c4)cc3)ccc2[nH]1  Non-receptor tyrosine-protein kinase TYK2 (Homo sapiens) (UniProt P29597)    inhibition            %           0.49
1  Cc1cc(O)cc(C)c1/C=C/c1cncc(C(=O)N(C)C)c1  Non-receptor tyrosine-protein kinase TYK2 (Homo sapiens) (UniProt P29597)    inhibition            %           -1.5
2  CN(C)c1cc2c(Nc3ccc4c(cnn4Cc4ccccc4)c3)ncnc2cn1  Non-receptor tyrosine-protein kinase TYK2 (Homo sapiens) (UniProt P29597)    inhibition            %          -2.71
3  C[C@@H](Oc1cc(-n2cnc3ccc(OCC4CCN(C)CC4)cc32)sc1C(N)=O)c1ccccc1C(F)(F)F  Non-receptor tyrosine-protein kinase TYK2 (Homo sapiens) (UniProt P29597)    inhibition            %           2.67
